- TGT: T1, human CD47, full length, on transfected cells (human, UniProt Q08722 19-323)
- T1 construct: whole, on cells; also called CHOK1-hCD47
- MEASUREMENT_DESCRIPTION: FACS CHOK1-hCD47; Ab 0.064 nM
Below, each of the binders is paired with its reported mean fluorescence intensity value.
// return a plain number; no unit text

BINDER	mean fluorescence intensity
54G8G6 (antibody, V domains shown, Murine hybridoma antibody purified on protein G) VH: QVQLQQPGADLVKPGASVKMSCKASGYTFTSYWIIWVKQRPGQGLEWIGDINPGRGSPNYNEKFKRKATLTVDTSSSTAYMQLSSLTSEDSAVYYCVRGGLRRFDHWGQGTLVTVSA VL: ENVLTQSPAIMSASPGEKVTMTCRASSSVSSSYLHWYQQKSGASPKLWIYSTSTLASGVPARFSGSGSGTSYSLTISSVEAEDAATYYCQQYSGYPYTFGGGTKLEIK	561
95E2D10 (antibody, V domains shown, Murine hybridoma antibody purified on protein G) VH: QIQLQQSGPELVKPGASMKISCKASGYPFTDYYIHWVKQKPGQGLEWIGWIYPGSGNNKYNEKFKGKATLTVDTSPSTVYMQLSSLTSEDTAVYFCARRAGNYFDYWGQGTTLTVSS VL: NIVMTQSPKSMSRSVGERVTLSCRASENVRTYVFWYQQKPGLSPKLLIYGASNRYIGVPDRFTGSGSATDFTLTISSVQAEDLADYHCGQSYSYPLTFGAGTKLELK	408

Now consider the entry below.
Which value of mean fluorescence intensity has been reported for 25E3B5 (antibody, V domains shown, Murine hybridoma antibody purified on protein G) VH: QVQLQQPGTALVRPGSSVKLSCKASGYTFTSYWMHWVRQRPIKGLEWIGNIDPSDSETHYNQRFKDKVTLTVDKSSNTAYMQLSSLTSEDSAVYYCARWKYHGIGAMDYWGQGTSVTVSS VL: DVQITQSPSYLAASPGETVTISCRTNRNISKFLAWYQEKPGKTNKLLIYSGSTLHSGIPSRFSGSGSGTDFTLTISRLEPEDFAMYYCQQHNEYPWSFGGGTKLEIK in the records?
386
